B1: library; numbered along this chain (parent)
chain: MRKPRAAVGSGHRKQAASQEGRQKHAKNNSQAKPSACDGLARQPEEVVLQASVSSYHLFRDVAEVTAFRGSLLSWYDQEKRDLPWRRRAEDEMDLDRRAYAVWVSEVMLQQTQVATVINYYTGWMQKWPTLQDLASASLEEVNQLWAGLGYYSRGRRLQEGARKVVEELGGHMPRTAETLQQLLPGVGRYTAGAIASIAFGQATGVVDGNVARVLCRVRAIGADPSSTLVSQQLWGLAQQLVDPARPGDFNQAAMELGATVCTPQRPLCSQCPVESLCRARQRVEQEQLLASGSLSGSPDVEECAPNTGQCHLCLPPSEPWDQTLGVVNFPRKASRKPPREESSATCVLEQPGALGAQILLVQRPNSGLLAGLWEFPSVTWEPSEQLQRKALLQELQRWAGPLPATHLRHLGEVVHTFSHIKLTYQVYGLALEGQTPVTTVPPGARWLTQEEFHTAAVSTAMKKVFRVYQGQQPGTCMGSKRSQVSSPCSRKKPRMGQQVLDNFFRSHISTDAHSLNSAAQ

# Variants of: B1
# experimentNotes: 8OG:A repair function score (normalized; synonymous = 0, nonsense = -1) (normalized log-likelihood score); higher = more repair activity (WT-like);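 also: cells sorted at 72 h after reporter transfection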
# conditionDetails: with 8OG:A DNA repair reporter (GFP) in HEK-293 MUTYH KO cells
Kind request: treat -0.03 as inclusive, so 8OG:A repair function score at -0.03 or higher is condition met, anything lower is condition not met.

Solved entries (count: 5):
S71Q
condition met
T417S
condition met
R364I
condition not met
A291S
condition met
L516T
condition met

[ask] Determine whether measured 8OG:A repair function score meets or exceeds -0.03 for M462P
[reply] condition not met

[ask] Form field: 8OG:A repair function score at least -0.03? Entry: Q323V
[reply] condition met

[ask] Decide: is the reported value of 8OG:A repair function score for V468G equal to or greater than -0.03?
[reply] condition not met

[ask] # bool: 8OG:A repair function score of Y152H >= -0.03
[reply] condition not met

[ask] Given the entry R340D , answer whether its 8OG:A repair function score meets or surpasses -0.03.
[reply] condition not met
